condition-notes: in methanol, 278.15 K
endpoint-label: solubility (mole fraction)
Returns: the value as a bare number; no unit string appended.

Bench note: what solubility (mole fraction) did Cc1ccc(S(=O)[O-])cc1.[Na+] show?
0.0234

---

condition-notes: in n-butanol, 318.15 K
endpoint-label: solubility (mole fraction)
Returns: the value as a bare number; no unit string appended.

Bench note: what solubility (mole fraction) did Cc1ccc(S(=O)[O-])cc1.[Na+] show?
0.00069

---

condition-notes: in n-propanol, 298.15 K
endpoint-label: solubility (mole fraction)
Returns: the value as a bare number; no unit string appended.

Bench note: what solubility (mole fraction) did Cc1ccc(S(=O)[O-])cc1.[Na+] show?
0.00347

---

condition-notes: in methanol, 303.15 K
endpoint-label: solubility (mole fraction)
Returns: the value as a bare number; no unit string appended.

Bench note: what solubility (mole fraction) did Cc1ccc(S(=O)[O-])cc1.[Na+] show?
0.0851

---

condition-notes: in ethanol, 308.15 K
endpoint-label: solubility (mole fraction)
Returns: the value as a bare number; no unit string appended.

Bench note: what solubility (mole fraction) did Cc1ccc(S(=O)[O-])cc1.[Na+] show?
0.00373

---

condition-notes: in isopropanol, 278.15 K
endpoint-label: solubility (mole fraction)
Returns: the value as a bare number; no unit string appended.

Bench note: what solubility (mole fraction) did Cc1ccc(S(=O)[O-])cc1.[Na+] show?
0.00083

---

condition-notes: in acetone, 308.15 K
endpoint-label: solubility (mole fraction)
Returns: the value as a bare number; no unit string appended.

Bench note: what solubility (mole fraction) did Cc1ccc(S(=O)[O-])cc1.[Na+] show?
0.00111

---

condition-notes: in acetone, 278.15 K
endpoint-label: solubility (mole fraction)

Bench note: what solubility (mole fraction) did Cc1ccc(S(=O)[O-])cc1.[Na+] show?
0.00039

---

condition-notes: in DMF, 308.15 K
endpoint-label: solubility (mole fraction)
Returns: the value as a bare number; no unit string appended.

Bench note: what solubility (mole fraction) did Cc1ccc(S(=O)[O-])cc1.[Na+] show?
0.0105

---

condition-notes: in DMF, 303.15 K
endpoint-label: solubility (mole fraction)
Returns: the value as a bare number; no unit string appended.

Bench note: what solubility (mole fraction) did Cc1ccc(S(=O)[O-])cc1.[Na+] show?
0.00747

---

condition-notes: in n-propanol, 278.15 K
endpoint-label: solubility (mole fraction)

Bench note: what solubility (mole fraction) did Cc1ccc(S(=O)[O-])cc1.[Na+] show?
0.00301

---

condition-notes: in ethanol, 288.15 K
endpoint-label: solubility (mole fraction)
Returns: the value as a bare number; no unit string appended.

Bench note: what solubility (mole fraction) did Cc1ccc(S(=O)[O-])cc1.[Na+] show?
0.00337

---

condition-notes: in acetonitrile, 298.15 K
endpoint-label: solubility (mole fraction)
Returns: the value as a bare number; no unit string appended.

Bench note: what solubility (mole fraction) did Cc1ccc(S(=O)[O-])cc1.[Na+] show?
0.00016

---

condition-notes: in n-butanol, 313.15 K
endpoint-label: solubility (mole fraction)

Bench note: what solubility (mole fraction) did Cc1ccc(S(=O)[O-])cc1.[Na+] show?
0.00063

---

condition-notes: in water, 293.15 K
endpoint-label: solubility (mole fraction)
Returns: the value as a bare number; no unit string appended.

Bench note: what solubility (mole fraction) did Cc1ccc(S(=O)[O-])cc1.[Na+] show?
0.0272
